# viability, T/C listing for each entry below
# System: MALME-3M multicell spheroids, viability
# protocol: Anticancer human tumor MALME-3M cell line growth inhibition [TAK];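 further: spheroids exposed to drugs for seven days before readout; 100% = DMSO vehicle control viability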
# condition_summary: second compound 3 µM; first compound 0.001 µM; active compounds read low
Write it as a number; the unit % goes unstated.

Take a look at these entries with their results.
>  <compound>
CC(C)n1nc(-c2ccc3oc(N)nc3c2)c2c(N)ncnc21 + CC(C)NCC(C(=O)N1CCN(c2ncnc3c2C(C)CC3O)CC1)c1ccc(Cl)cc1

>  <unit_name>
%

>  <viability, T/C>
61.1

$$$$
>  <compound>
CC(C)CC(NC(=O)CNC(=O)c1cc(Cl)ccc1Cl)B1OC(=O)CC(CC(=O)O)(C(=O)O)O1 (centres undefined) + CC(C)NCC(C(=O)N1CCN(c2ncnc3c2C(C)CC3O)CC1)c1ccc(Cl)cc1

>  <unit_name>
%

>  <viability, T/C>
77

$$$$
>  <compound>
COC1CC2CCC(C)C(O)(O2)C(=O)C(=O)N2CCCCC2C(=O)OC(C(C)CC2CCC(OCCO)C(OC)C2)CC(=O)C(C)C=C(C)C(O)C(OC)C(=O)C(C)CC(C)C=CC=CC=C1C (centres undefined) + CC(C)NCC(C(=O)N1CCN(c2ncnc3c2C(C)CC3O)CC1)c1ccc(Cl)cc1

>  <unit_name>
%

>  <viability, T/C>
55.4

$$$$

[in] So what's the measured viability, T/C for this one? CC(C)CC(NC(=O)C(Cc1ccccc1)NC(=O)c1cnccn1)B(O)O (centres undefined) + CC(C)NCC(C(=O)N1CCN(c2ncnc3c2C(C)CC3O)CC1)c1ccc(Cl)cc1
[out] 91.5

---

# System: MALME-3M multicell spheroids, viability
# protocol: Anticancer human tumor MALME-3M cell line growth inhibition [TAK];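 further: spheroids exposed to drugs for seven days before readout; 100% = DMSO vehicle control viability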
# condition_summary: second compound 30 µM; first compound 0.00316 µM; active compounds read low
quantity_measured: viability, T/C (%)
Write it as a number; the unit % goes unstated.

Take a look at these entries with their results.
>  <molecule>
CC(C)n1nc(-c2ccc3oc(N)nc3c2)c2c(N)ncnc21 + CC(C)NCC(C(=O)N1CCN(c2ncnc3c2C(C)CC3O)CC1)c1ccc(Cl)cc1

>  <experimental_system>
MALME-3M multicell spheroids, viability

>  <unit_name>
%

>  <observed_measurement>
28.6

$$$$
>  <molecule>
CC(C)CC(NC(=O)CNC(=O)c1cc(Cl)ccc1Cl)B1OC(=O)CC(CC(=O)O)(C(=O)O)O1 (stereo not given) + CC(C)NCC(C(=O)N1CCN(c2ncnc3c2C(C)CC3O)CC1)c1ccc(Cl)cc1

>  <experimental_system>
MALME-3M multicell spheroids, viability

>  <unit_name>
%

>  <observed_measurement>
45.2

$$$$
>  <molecule>
CC(C)CC(NC(=O)C(Cc1ccccc1)NC(=O)c1cnccn1)B(O)O (stereo not given) + CC(C)NCC(C(=O)N1CCN(c2ncnc3c2C(C)CC3O)CC1)c1ccc(Cl)cc1

>  <experimental_system>
MALME-3M multicell spheroids, viability

>  <unit_name>
%

>  <observed_measurement>
13.2

$$$$
>  <molecule>
COc1c(OCCCN2CCOCC2)ccc2c3n(c(=NC(=O)c4cnc(N)nc4)nc12)CCN3 + CC(C)NCC(C(=O)N1CCN(c2ncnc3c2C(C)CC3O)CC1)c1ccc(Cl)cc1

>  <experimental_system>
MALME-3M multicell spheroids, viability

>  <unit_name>
%

>  <observed_measurement>
45.8

$$$$

[in] So what's the measured viability, T/C for this one? COC1CC2CCC(C)C(O)(O2)C(=O)C(=O)N2CCCCC2C(=O)OC(C(C)CC2CCC(OCCO)C(OC)C2)CC(=O)C(C)C=C(C)C(O)C(OC)C(=O)C(C)CC(C)C=CC=CC=C1C (stereo not given) + CC(C)NCC(C(=O)N1CCN(c2ncnc3c2C(C)CC3O)CC1)c1ccc(Cl)cc1
[out] 20.7
